FYI, the data here is from patent US8835509B2.

# RUN_DESCRIPTION: Solubility test of curcumin in oils, surfactants, milk, BSA and casein
# Format: physicochemical
# MEASUREMENT_CONDITIONS: Almond oil, oil or lipid, thermodynamic from solid; in Almond; 37° C., 72 h; read-out: Solubility of Curcumin in oils, Sol
ASSAY_METRIC: solubility at 72 h (µg/mL)
Answers are plain numbers, in µg/mL.

Data request: Bench note: what solubility at 72 h did `COc1cc(/C=C/C(=O)/C=C(O)/C=C/c2ccc(O)c(OC)c2)ccc1O` show?
Data returned: 1250

* * *

# RUN_DESCRIPTION: Solubility test of curcumin in oils, surfactants, milk, BSA and casein
# Type: physicochemical
# MEASUREMENT_CONDITIONS: oil or lipid, thermodynamic from solid; in Light Paraffin; 37° C., 72 h; read-out: Solubility of Curcumin in oils, Sol
ASSAY_METRIC: solubility at 72 h (µg/mL)
Numbers only, in µg/mL.

Data request: Request the reported solubility at 72 h associated with COc1cc(/C=C/C(=O)/C=C(O)/C=C/c2ccc(O)c(OC)c2)ccc1O [Curcumin, curcumin]
Data returned: 7
